Tested on: DU145 prostate cancer cells
assayComment: MTT cytotoxicity assay, DU145
Assay type: cell-based, human
conditionLabel: Homo sapiens, DU-145, read-out: IC50 ± SD, DU145
Answer each item with its documented pIC50.
Numbers only, as −log10 of the molar value.

# compound, targetDesc, resultType, testValue
data = [
    ("Cc1nc([N+](=O)[O-])c(N2CCN(Cc3cn(-c4ccc5c(c4)OCO5)nn3)CC2)n1Cc1ccccc1 [Compound 11p]", "DU145 prostate cancer cells", "pIC50", 6.10),
]

Hi, could you look up pIC50 for each item in my list?
1. Cc1nc([N+](=O)[O-])c(N2CCN(Cc3cn(CC(=O)c4ccc(Br)cc4)nn3)CC2)n1Cc1ccccc1 [Compound 10b]
2. COc1cccc2c1C(=O)c1c(O)c3c(c(O)c1C2=O)C[C@@](O)(C(=O)CO)C[C@@H]3O[C@H]1C[C@H](N)[C@H](O)[C@H](C)O1 [Doxorubicin, reference compound]
3. Cc1nc([N+](=O)[O-])c(N2CCN(Cc3cn(CC(=O)c4ccccc4)nn3)CC2)n1Cc1ccccc1 [Compound 10a]
4. COc1cccc(C(=O)Cn2cc(CN3CCN(c4c([N+](=O)[O-])nc(C)n4Cc4ccccc4)CC3)nn2)c1 [Compound 10c]

Result ::
5.05
6.18
5.50
4.83

###

Test system: MCF-7 (human breast adenocarcinoma)
assayComment: MTT cytotoxicity assay, MCF-7
Type: cell-based
conditionLabel: Homo sapiens, MCF7, 72 h, read-out: IC50 ± SD, MCF7
Class boundaries, taken from values of IC50, are as follows: group A (below 80 µM), group B (80 µM to below 300 µM), group C (300 µM or more)

# molecule, targetDesc, qualitativeLabel
data = [
    ("Cc1nc([N+](=O)[O-])c(N2CCN(Cc3cn(-c4ccccc4)nn3)CC2)n1Cc1ccccc1 [Compound 11d]", "MCF-7 (human breast adenocarcinoma)", "group C"),
    ("Cc1nc([N+](=O)[O-])c(N2CCN(Cc3cn(CC(=O)c4ccc(Br)cc4)nn3)CC2)n1Cc1ccccc1 [Compound 10b]", "MCF-7 (human breast adenocarcinoma)", "group C"),
    ("Cc1ccccc1-n1cc(CN2CCN(c3c([N+](=O)[O-])nc(C)n3Cc3ccccc3)CC2)nn1 [Compound 11g]", "MCF-7 (human breast adenocarcinoma)", "group B"),
    ("CCOc1ccccc1-n1cc(CN2CCN(c3c([N+](=O)[O-])nc(C)n3Cc3ccccc3)CC2)nn1 [Compound 11c]", "MCF-7 (human breast adenocarcinoma)", "group C"),
    ("COc1cccc(-n2cc(CN3CCN(c4c([N+](=O)[O-])nc(C)n4Cc4ccccc4)CC3)nn2)c1 [Compound 11l]", "MCF-7 (human breast adenocarcinoma)", "group B"),
]

Query :: # classify by IC50 band: Cc1nc([N+](=O)[O-])c(N2CCN(Cc3cn(-c4cccc5c4CCCC5)nn3)CC2)n1Cc1ccccc1 [Compound 11o]
Result :: group B

Query :: Which category does the recorded IC50 put "Cc1nc([N+](=O)[O-])c(N2CCN(Cc3cn(Cc4ccccc4Br)nn3)CC2)n1Cc1ccccc1" in?
Result :: group B

Query :: Field: class (IC50) — entry: COc1cccc2c1C(=O)c1c(O)c3c(c(O)c1C2=O)C[C@@](O)(C(=O)CO)C[C@@H]3O[C@H]1C[C@H](N)[C@H](O)[C@H](C)O1 [Doxorubicin, reference compound]
Result :: group A

Query :: Which class does "Cc1nc([N+](=O)[O-])c(N2CCN(Cc3cn(Cc4cccc(Br)c4)nn3)CC2)n1Cc1ccccc1" fall in?
Result :: group A

Query :: Lab note: which band did "C#CCN1CCN(c2c([N+](=O)[O-])nc(C)n2Cc2ccccc2)CC1" land in?
Result :: group B

###

Can you tell me IC50 for the items I'm about to list?
Tested on: MCF-7 (human breast adenocarcinoma)
assayComment: MTT cytotoxicity assay, MCF-7
Format: cell-based
conditionLabel: Homo sapiens, MCF7, 72 h, read-out: IC50 ± SD, MCF7

Items follow; give IC50 for each.
1. Cc1nc([N+](=O)[O-])c(N2CCN(Cc3cn(-c4ccc(Cl)cc4)nn3)CC2)n1Cc1ccccc1 [Compound 11j]
2. Cc1cccc(Cn2cc(CN3CCN(c4c([N+](=O)[O-])nc(C)n4Cc4ccccc4)CC3)nn2)c1 [Compound 9e]
3. Cc1nc([N+](=O)[O-])c(N2CCN(Cc3cn(Cc4cccc(F)c4)nn3)CC2)n1Cc1ccccc1 [Compound 9g]
4. Cc1nc([N+](=O)[O-])c(N2CCN(Cc3cn(Cc4cccc([N+](=O)[O-])c4)nn3)CC2)n1Cc1ccccc1 [Compound 9d]
5. Cc1nc([N+](=O)[O-])c(N2CCN(Cc3cn(-c4ccc([N+](=O)[O-])cc4)nn3)CC2)n1Cc1ccccc1 [Compound 11k]
6. Cc1nc([N+](=O)[O-])c(N2CCN(Cc3cn(Cc4ccc(Br)cc4)nn3)CC2)n1Cc1ccccc1 [Compound 9b]
7. COc1cccc(C(=O)Cn2cc(CN3CCN(c4c([N+](=O)[O-])nc(C)n4Cc4ccccc4)CC3)nn2)c1 [Compound 10c]

Result ::
1. 279 µM
2. 79 µM
3. 2 µM
4. 40 µM
5. 671 µM
6. 79 µM
7. 585 µM
